assay system: HiBiT tagged GSPT1 (Homo sapiens, UniProt P15170+Q96SW2)
Sequence (P15170 whole entry): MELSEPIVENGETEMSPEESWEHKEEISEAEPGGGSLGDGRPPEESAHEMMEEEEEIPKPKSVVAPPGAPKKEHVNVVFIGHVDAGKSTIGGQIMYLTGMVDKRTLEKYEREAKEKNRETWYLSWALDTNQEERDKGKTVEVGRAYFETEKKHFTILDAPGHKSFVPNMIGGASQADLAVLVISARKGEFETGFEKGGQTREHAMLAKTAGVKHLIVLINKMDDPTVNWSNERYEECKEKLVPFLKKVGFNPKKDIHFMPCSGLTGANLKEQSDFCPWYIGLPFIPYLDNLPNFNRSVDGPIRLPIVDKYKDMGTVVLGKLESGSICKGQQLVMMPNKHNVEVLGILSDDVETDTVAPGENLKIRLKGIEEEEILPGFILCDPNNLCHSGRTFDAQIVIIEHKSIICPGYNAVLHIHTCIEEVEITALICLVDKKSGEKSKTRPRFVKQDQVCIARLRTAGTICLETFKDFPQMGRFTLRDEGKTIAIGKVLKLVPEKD
Sequence (Q96SW2 whole entry): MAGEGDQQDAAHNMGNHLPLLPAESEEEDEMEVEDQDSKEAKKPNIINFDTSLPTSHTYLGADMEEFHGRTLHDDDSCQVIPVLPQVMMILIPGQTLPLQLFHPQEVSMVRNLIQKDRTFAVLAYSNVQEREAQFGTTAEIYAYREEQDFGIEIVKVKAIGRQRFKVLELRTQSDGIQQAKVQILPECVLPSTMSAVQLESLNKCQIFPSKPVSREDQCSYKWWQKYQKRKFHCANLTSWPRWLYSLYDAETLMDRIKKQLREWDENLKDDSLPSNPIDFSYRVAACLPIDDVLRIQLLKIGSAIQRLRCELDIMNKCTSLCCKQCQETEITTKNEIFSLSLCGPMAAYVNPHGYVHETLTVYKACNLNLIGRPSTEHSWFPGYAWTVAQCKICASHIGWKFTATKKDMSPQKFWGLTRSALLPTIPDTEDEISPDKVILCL
Sequence (Q16531 whole entry partner): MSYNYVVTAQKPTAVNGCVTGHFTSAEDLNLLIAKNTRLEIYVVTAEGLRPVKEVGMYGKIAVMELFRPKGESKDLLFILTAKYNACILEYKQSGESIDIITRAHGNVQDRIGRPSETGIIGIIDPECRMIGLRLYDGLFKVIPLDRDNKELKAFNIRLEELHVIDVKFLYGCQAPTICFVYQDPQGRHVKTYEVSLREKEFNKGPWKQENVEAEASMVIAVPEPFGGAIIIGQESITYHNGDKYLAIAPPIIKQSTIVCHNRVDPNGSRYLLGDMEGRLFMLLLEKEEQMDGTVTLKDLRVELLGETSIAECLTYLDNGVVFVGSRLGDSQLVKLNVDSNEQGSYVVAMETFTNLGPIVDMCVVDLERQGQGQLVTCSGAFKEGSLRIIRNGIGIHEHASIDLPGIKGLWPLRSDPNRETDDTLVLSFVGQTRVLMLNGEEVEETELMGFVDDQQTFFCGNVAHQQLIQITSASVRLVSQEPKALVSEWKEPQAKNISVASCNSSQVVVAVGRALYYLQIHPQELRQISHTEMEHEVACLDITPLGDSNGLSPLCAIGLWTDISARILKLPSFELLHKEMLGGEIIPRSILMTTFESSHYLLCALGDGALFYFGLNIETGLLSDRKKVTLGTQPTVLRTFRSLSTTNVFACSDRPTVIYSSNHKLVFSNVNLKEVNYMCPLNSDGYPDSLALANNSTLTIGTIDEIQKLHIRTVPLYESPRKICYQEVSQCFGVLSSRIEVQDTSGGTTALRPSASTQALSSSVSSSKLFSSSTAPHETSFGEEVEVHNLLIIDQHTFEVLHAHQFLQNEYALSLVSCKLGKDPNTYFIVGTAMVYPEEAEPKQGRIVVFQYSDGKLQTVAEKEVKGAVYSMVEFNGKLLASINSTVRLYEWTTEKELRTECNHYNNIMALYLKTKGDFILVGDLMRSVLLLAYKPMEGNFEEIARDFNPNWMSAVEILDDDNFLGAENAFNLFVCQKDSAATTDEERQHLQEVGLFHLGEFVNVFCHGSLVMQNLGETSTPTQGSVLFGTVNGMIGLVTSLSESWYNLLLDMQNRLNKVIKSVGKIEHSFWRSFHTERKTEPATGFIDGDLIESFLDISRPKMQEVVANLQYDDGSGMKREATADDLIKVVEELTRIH
assay explanation: GSPT1 degradation assay (HiBiT assay)
Assay type: cell-based
experimental parameters: HT-1080, HT-1080 cells, 20 hours; maximum GSPT1 degradation
attribute measured: Dmax (%)
Express your answer in %, writing the number without its unit.

Consider the reported Dmax for these molecules:
| molecule | Dmax / % |
| --- | --- |
| O=C1CCC(N2Cc3cc(C(=O)N[C@H](c4ccc(Cl)cc4)C4CC(F)(F)C4)ccc3C2=O)C(=O)N1 (stereo in doubt) | 14.8 |
| O=C1CCC(N2Cc3cc(C(=O)N[C@H](c4c(F)cccc4F)C4CCC4)ccc3C2=O)C(=O)N1 (stereo in doubt) | 31.7 |
| O=C1CCC(N2Cc3cc(C(=O)N[C@H](c4ccccc4F)C4CC4)ccc3C2=O)C(=O)N1 (stereo in doubt) | 23.4 |
| O=C1CC[C@@H](N2Cc3cc(C(=O)NC(c4ccc(F)cc4)C4CCCC4)ccc3C2=O)C(=O)N1 (single isomer, unassigned) | 27.5 |
| N#Cc1ccccc1[C@@H](NC(=O)c1ccc2c(c1)CN(C1CCC(=O)NC1=O)C2=O)C1CC1 (stereo in doubt) | 27.9 |

# input Reported Dmax for O=C1CCC(N2Cc3cc(C(=O)NC(c4c(F)cccc4F)C4CCC4)ccc3C2=O)C(=O)N1 (stereo not drawn) : what is it?
# output 48.3

----------
assay system: HiBiT tagged CK1α (Homo sapiens, UniProt P48729+Q96SW2)
Sequence (P48729 whole entry): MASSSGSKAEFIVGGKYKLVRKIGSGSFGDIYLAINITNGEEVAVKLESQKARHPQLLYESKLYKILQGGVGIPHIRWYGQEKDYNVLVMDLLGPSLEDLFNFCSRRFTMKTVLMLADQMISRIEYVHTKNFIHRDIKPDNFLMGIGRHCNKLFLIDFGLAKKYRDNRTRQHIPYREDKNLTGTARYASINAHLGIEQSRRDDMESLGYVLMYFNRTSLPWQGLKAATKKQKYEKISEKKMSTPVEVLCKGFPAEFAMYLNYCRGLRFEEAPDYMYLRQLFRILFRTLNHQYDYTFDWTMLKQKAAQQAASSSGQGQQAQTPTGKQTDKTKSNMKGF
Sequence (Q96SW2 whole entry): as the sequence (Q96SW2 whole entry) above
Sequence (Q16531 whole entry partner): as the sequence (Q16531 whole entry partner) above
assay explanation: CK1α degradation assay (HiBiT assay)
Format: cell-based
experimental parameters: HT-1080 cells, 20 hours; concentration at 50% CK1α degradation
Readings of DC50 for the listed compounds
// return numeric value only (unit: nM, not printed)

See these solved cases before continuing.
| compound | DC50, nM |
| --- | --- |
| O=C1CCC(N2Cc3cc(C(=O)N[C@H](c4ncccc4Cl)C4(F)CCC4)ccc3C2=O)C(=O)N1 (stereo in doubt) | 279 |
| O=C1CCC(N2Cc3cc(C(=O)N[C@@H](c4ccc(F)cc4)C4CCC4)ccc3C2=O)C(=O)N1 (stereo in doubt) | 3880 |
| O=C1CCC(N2Cc3cc(C(=O)N[C@H](c4ccccc4F)C4CC4)ccc3C2=O)C(=O)N1 (stereo in doubt) | 308 |
| O=C1CC[C@@H](N2Cc3cc(C(=O)N[C@H](c4ccc(F)cc4Cl)C4CCC4)ccc3C2=O)C(=O)N1 (racemic) [Compound 50] | 237 |
| O=C1CC[C@H](N2Cc3cc(C(=O)N[C@H](c4ccc(F)cc4)C4CCCC4)ccc3C2=O)C(=O)N1 (racemic) [Compound 63] | 53.5 |

# input Quick one: DC50 of Cn1cc(-c2cccnc2[C@@H](NC(=O)c2ccc3c(c2)CN([C@H]2CCC(=O)NC2=O)C3=O)C2CCC2)cn1 (single isomer, unassigned) ?
# output 74.1

# input Then what about the compound O=C1CCC(N2Cc3cc(C(=O)N[C@H](c4cccc(C(F)(F)F)c4)C4CC4)ccc3C2=O)C(=O)N1 (stereo in doubt) ?
# output 446

# input What do you have for O=C1CC[C@@H](N2Cc3cc(C(=O)NC(c4ccc(F)c(F)c4)C4CCC4)ccc3C2=O)C(=O)N1 (single isomer, unassigned) ?
# output 112

# input How about O=C1CCC(N2Cc3cc(C(=O)N[C@H](c4ccc(Cl)cc4)C4CC(F)(F)C4)ccc3C2=O)C(=O)N1 (stereo in doubt) ?
# output 94.7

# input Also, O=C1CC[C@H](N2Cc3cc(C(=O)N[C@H](c4ccc(F)c(F)c4)C4CCC4)ccc3C2=O)C(=O)N1 (racemic) [Compound 46] please.
# output 1300
